# measured.target: Human ASK1 (Homo sapiens, UniProt Q99683)
# Construct: expressed in transfected cells; host or cells: HEK293T-AP1
# assay.explanation: ASK1 Cell Based Assay (phospho p38 read out in hASK1 transfected HEK293T-AP1 cells)
# condition.summary: HEK293T-AP1 cells, 1 mM hydrogen peroxide, phospho p38; read-out: Cell Based Assay IC50
value.type: IC50

The cases that follow already have their IC50 on record.
Returns the measured IC50 for the input compound. Input: `CNC(=O)N1CCN(c2ccc(N3CCN(c4cccc(-c5nncn5C(C)C)n4)C3=O)cc2)CC1`
> 0.1 µM

Please report the recorded IC50 for `CC(C)n1cnnc1-c1cccc(N2CCN(c3ccc(N4CC(C(N)=O)C4)nc3)C2=O)n1` .
> 1 µM

Endpoint output: IC50 of `CNC1(C2CCN(c3ccc(N4CCN(c5cccc(-c6nncn6C(C)C)n5)C4=O)cc3)CC2)COC1` . Value?
> 0.1 µM

IC50 lookup needed for `CC(C)n1cnnc1-c1cccc(N2CCN(c3ccc(N4CCOCC4)c(F)c3)C2=O)n1` , thanks.
> 1 µM

Kindly review the next compound as well.
Look at this compound and give its reported IC50. `CC(C)n1cnnc1-c1cccc(N2CCN(c3ccc(C(=O)NC4CC4)nc3)C2=O)n1`
> 1 µM

---

# measured.target: Human ASK1 (Homo sapiens, UniProt Q99683)
# Construct: expressed in transfected cells; host or cells: HEK293T-AP1
# Sequence (Q99683 1-1374): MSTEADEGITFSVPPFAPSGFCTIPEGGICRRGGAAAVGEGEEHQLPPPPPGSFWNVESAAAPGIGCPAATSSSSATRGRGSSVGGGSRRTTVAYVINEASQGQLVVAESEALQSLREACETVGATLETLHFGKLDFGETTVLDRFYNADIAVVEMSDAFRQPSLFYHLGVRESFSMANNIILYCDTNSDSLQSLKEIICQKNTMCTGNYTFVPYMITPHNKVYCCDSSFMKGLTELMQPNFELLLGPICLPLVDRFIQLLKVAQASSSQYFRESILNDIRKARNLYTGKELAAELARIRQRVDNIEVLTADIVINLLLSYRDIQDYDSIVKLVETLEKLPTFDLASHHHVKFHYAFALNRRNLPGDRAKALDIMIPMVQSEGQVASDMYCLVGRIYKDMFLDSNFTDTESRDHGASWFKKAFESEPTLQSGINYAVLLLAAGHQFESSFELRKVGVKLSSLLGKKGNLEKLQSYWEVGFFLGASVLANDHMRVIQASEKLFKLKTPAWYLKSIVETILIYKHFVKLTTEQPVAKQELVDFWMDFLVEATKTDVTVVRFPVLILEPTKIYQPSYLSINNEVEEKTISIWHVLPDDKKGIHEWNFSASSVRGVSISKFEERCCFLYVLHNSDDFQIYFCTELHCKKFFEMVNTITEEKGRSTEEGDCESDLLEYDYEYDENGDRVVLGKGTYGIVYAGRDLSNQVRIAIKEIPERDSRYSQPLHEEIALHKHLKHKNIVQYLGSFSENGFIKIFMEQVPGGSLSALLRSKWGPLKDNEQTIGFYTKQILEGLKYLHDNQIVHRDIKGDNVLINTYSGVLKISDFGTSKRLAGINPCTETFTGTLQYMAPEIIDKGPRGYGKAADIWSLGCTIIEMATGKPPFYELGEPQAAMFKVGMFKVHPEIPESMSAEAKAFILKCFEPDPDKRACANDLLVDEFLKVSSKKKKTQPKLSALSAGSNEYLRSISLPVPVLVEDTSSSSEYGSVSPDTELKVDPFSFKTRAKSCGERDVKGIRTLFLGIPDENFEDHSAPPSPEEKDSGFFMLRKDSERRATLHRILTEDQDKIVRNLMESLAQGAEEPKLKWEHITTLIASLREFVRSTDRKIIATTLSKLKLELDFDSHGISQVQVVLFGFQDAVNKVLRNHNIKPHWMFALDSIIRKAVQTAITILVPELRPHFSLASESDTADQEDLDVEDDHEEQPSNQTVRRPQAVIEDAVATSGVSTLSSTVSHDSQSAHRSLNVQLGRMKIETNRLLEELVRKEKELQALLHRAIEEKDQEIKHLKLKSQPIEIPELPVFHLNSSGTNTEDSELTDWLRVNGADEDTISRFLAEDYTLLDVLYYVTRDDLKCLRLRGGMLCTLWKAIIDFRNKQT
# assay.explanation: ASK1 Cell Based Assay (phospho p38 read out in hASK1 transfected HEK293T-AP1 cells)
# condition.summary: HEK293T-AP1 cells, 1 mM hydrogen peroxide, phospho p38; read-out: Cell Based Assay IC50
# IC50 per record follows

Before answering, review these 4 worked examples.
Find the recorded IC50 belonging to CC(C)n1cnnc1-c1cccc(N2CCN(c3ccc(S(C)(=O)=O)c(N4CCCCC4)c3)C2=O)n1 [Example 1063] and report it.
> 1 µM

So what's the measured IC50 for this one? CC(C)n1cnnc1-c1cccc(N2CCN(c3ccc(C(C#N)N4CCOCC4)cc3)C2=O)n1 (centres unmarked) [Example 1098]
> 1 µM

Which IC50 value is on record for CC(C)n1cnnc1-c1cccc(N2CCN(c3ccc(N4CCC(F)CC4)cc3)C2=O)n1 [Example 1138] ?
> 0.1 µM

I am curious: what IC50 value has been reported for CC(C)n1cnnc1-c1cccc(N2CCN(c3ccc(NC(C#N)C4CC4)cc3)C2=O)n1 (centres unmarked) [Example 1056] ?
> 1 µM

More entries:
Field request: IC50 | item: CC(C)C(c1ccc(N2CCN(c3cccc(-c4nncn4C(C)C)n3)C2=O)cc1)N1CCOCC1 (centres unmarked) [Example 1129]
> 1 µM

Requested field: IC50. Item: CC(C)n1cnnc1-c1cccc(N2CCN(c3ccc(N4CCN(C)C(=O)C4)cc3)C2=O)n1 [Example 1135]
> 1 µM

Need IC50, item CC(C)n1cnnc1-c1cccc(N2CCN(c3ccc(S(C)(=O)=O)cc3)C2=O)n1 [Example 1013]
< 1 µM

Field request: IC50 | item: CC(C)n1cnnc1-c1cccc(N2CCN(c3ccc(C(O)C(F)(F)F)cc3)C2=O)n1 (centres unmarked) [Example 1083]
> 1 µM
